Assay procedure: Cyclic voltammetry of the redox-active amines
Reported conditions: Table 1; gap between Ep^oxi and Ep^red

# Compound, Unit string, Potential gap
data = [
    ("N[n+]1ccc(O)cc1 [Entry 9]", "V", 1.41),
    ("Cc1ccc[n+](N)c1.[O-][Cl+3]([O-])([O-])[O-] [Entry 13]", "V", 1.47),
    ("Cc1cccc(C)[n+]1N.[O-][Cl+3]([O-])([O-])[O-] [Entry 17]", "V", 1.47),
]

The values you see were collected from patent US20240307819A1.
